Assayed system: HDAC6 (Homo sapiens, UniProt Q9UBN7)
Construct: purchased Reaction Biology Corporation (assay run by the CRO)
Sequence (Q9UBN7 1-1215): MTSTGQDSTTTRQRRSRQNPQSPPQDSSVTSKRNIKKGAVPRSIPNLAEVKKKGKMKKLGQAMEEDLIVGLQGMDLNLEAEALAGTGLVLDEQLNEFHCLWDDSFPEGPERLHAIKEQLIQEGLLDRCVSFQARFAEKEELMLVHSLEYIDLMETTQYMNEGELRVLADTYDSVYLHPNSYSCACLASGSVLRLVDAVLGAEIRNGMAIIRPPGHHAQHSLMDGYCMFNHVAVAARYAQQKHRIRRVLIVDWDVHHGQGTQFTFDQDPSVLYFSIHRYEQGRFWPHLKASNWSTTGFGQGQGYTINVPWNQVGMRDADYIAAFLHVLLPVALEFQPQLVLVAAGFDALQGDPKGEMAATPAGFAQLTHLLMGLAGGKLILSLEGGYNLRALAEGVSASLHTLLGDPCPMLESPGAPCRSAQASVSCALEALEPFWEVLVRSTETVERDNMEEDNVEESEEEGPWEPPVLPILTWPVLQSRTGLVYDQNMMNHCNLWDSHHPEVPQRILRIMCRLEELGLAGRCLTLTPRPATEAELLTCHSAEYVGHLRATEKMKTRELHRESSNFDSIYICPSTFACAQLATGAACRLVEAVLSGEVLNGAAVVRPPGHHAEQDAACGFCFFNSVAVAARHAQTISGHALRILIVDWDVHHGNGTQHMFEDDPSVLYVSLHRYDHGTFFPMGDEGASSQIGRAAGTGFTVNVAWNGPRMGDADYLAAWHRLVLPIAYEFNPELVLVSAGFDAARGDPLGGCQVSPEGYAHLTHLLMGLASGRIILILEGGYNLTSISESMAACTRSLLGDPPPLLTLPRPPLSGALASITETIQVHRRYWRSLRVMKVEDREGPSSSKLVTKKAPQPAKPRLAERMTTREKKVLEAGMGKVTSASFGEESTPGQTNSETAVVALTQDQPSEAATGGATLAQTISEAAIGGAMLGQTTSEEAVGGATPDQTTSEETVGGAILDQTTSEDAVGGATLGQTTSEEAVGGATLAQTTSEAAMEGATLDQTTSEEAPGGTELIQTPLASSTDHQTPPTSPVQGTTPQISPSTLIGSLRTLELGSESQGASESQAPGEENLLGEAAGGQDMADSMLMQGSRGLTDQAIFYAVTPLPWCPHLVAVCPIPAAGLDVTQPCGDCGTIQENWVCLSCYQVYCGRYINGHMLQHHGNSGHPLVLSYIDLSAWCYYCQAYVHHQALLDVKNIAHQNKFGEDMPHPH
Protocol details: HDAC6 inhibition, full IC50 measurement (Reaction Biology; fluorogenic p53 peptide RHKK(Ac)AMC)
Format: biochemical
Cond: Conc. 1.37E-08 M, t2
Peptide text beside a SMILES is read from it.
Below, each entry is listed with its recorded HDAC6 activity raw data (signal).
Enter the number alone.

Compound | HDAC6 activity raw data (signal)
N=C(N)NCCC[C@@H]1NC(=O)[C@@H](CCCNC(=N)N)NC(=O)[C@H]2CCCN2C(=O)[C@@H](Cc2c[nH]cn2)NC(=O)[C@H](Cc2ccc(O)cc2)NC(=O)[C@H](CCCCCS)NC(=O)[C@H](CCc2ccccc2)NC(=O)[C@@H](CO)NC(=O)[C@H](CC(=O)O)NC1=O [des3.3.1, SHA-Tyr-dHis-dPro-dArg-Arg-Asp-dSer-C27] (HELM PEPTIDE1{[O=C([C@H](CCCCCS)N[*:1])[*:2]].Y.[dH].[dP].[dR].R.D.[dS].[O=C([C@H](CCc1ccccc1)N[*:1])[*:2]]}$PEPTIDE1,PEPTIDE1,1:R1-9:R2$$$V2.0) | 93685
CCCC[C@H]1NC(=O)[C@H](Cc2ccccc2)NC(=O)[C@H](CCCCCS)NC(=O)[C@@H](CO)NC(=O)[C@H](CC(=O)O)NC(=O)[C@@H](CO)NC(=O)[C@@H](C)NC(=O)[C@H](CCCCN)NC1=O [des4.3.1.1, SHA-Phe-dNle-Lys-dAla-dSer-Asp-dSer] (HELM PEPTIDE1{D.[dS].[O=C([C@H](CCCCCS)N[*:1])[*:2]].F.[CCCC[C@@H](N[*:1])C(=O)[*:2]].K.[dA].[dS]}$PEPTIDE1,PEPTIDE1,1:R1-8:R2$$$V2.0) | 1756812

Let us examine a further case.
## Task State its HDAC6 activity raw data (signal): N=C(N)NCCC[C@H]1NC(=O)[C@@H]2CCCN2C(=O)[C@H](CO)NC(=O)[C@@H](Cc2c[nH]cn2)NC(=O)[C@H](CCCCCS)NC(=O)[C@H](CCCCN)NC(=O)[C@H](Cc2ccc(O)cc2)NC(=O)[C@H]2CCCN2C(=O)[C@@H](CCC(N)=O)NC1=O [des3.1.0, SHA-dHis-Ser-Pro-dArg-dGln-dPro-Tyr-Lys] (HELM PEPTIDE1{K.[O=C([C@H](CCCCCS)N[*:1])[*:2]].[dH].S.P.[dR].[dQ].[dP].Y}$PEPTIDE1,PEPTIDE1,1:R1-9:R2$$$V2.0)
## Result 166776
